// provenance: patent US8440710B2

Target: human HSL (Homo sapiens, UniProt Q05469)
Construct: generate a full length human HSL ORF with a 3′-His6 tag
Sequence (Q05469 whole entry): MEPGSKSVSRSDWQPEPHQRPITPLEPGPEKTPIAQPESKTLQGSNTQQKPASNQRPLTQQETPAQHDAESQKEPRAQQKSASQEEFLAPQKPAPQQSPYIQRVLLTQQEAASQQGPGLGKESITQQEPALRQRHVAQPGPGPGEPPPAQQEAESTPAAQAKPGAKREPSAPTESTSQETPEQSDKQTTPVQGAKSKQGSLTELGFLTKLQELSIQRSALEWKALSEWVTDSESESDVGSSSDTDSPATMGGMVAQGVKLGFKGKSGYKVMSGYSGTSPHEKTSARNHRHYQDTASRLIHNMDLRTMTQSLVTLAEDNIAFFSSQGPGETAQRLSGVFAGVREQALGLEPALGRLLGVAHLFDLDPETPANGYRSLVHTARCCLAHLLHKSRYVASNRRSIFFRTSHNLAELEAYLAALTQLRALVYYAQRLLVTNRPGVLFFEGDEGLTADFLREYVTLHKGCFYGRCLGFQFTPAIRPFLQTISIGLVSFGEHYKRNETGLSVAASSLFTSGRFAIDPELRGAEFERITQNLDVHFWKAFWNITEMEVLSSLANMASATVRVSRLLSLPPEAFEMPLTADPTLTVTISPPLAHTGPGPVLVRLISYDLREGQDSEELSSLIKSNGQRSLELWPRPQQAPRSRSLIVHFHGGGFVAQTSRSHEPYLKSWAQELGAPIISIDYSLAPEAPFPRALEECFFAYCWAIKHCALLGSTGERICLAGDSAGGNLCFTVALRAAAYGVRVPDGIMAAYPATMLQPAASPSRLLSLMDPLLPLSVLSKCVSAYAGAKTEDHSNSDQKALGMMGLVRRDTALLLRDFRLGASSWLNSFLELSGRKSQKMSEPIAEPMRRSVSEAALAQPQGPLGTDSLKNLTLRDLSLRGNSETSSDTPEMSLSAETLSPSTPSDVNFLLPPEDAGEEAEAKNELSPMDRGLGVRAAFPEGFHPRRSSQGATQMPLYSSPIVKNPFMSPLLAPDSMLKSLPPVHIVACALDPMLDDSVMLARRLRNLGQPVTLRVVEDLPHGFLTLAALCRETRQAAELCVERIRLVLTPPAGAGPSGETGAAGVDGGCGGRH
Assay: Human Hormone-Sensitive Lipase (HSL) enzyme inhibition assay (colorimetric, DMPT substrate)
Conditions: human full length HSL-His6, 2,3-dimercapto-1-propanol tributyrate substrate, 37° C. 20 minutes, absorbance at 405 nm; read-out: HSL hum IC50
property: IC50 (nM)

Reference set, count: 10
compound: O=C1N(c2ccc(OCC(F)(F)F)cc2)CC[C@]12CC[C@@](O)(COCc1ccccc1)CC2 [Example 242]
val: 10
//
compound: COCCc1ccc(N2CC[C@]3(CC[C@@](O)(CC(C)(C)C)CC3)C2=O)cc1 [Example 126]
val: 10
//
compound: CCO[C@H]1CC[C@@]2(CCN(c3ccc(OC(F)(F)F)cc3)C2=O)CC1 [Example 24]
val: 370
//
compound: CCCOC[C@]1(O)CC[C@]2(CCN(c3ccc(O[C@H](C)C(F)(F)F)cc3)C2=O)CC1 [Example 270]
val: 10
//
compound: CCOC[C@]1(O)CC[C@]2(CCN(c3ccc(C(C)(C)C)cc3)C2=O)CC1 [Example 348]
val: 10
//
compound: CNC(=O)O[C@H]1CC[C@@]2(CCN(c3ccc(OC(F)(F)F)cc3)C2=O)CC1 [Example 17]
val: 80
//
compound: CC(C)OC[C@]1(O)CC[C@@]2(CCN(c3ccc(O[C@H](C)C(F)(F)F)nc3)C2=O)CC1 [Example 315]
val: 180
//
compound: CCC[C@]1(O)CC[C@@]2(CCN(c3ccc(OC(F)(F)F)cc3)C2=O)CC1 [Example 56]
val: 570
//
compound: CCCS(=O)(=O)C[C@]1(O)CC[C@]2(CCN(c3ccc(C(C)(C)C)cc3)C2=O)CC1 [Example 331]
val: 12
//
compound: CCc1ccc(N2CC[C@]3(CC[C@@H](OC(=O)NCc4cccc(F)c4)CC3)C2=O)cc1 [Example 7]
val: 70

A = C=CCC[C@]1(O)CC[C@]2(CCN(c3ccc(OC(F)(F)F)cc3)C2=O)CC1 [Example 64]
B = CCc1ccc(N2CC[C@]3(CC[C@](O)(COCC(F)(F)F)CC3)C2=O)cc1 [Example 230]
query: Higher IC50: A or B ? Give the label under which the chosen entry appears.
result: B
